targetOfAssay: c-Src SH2
testDescription: SH2 binding enrichment of the phosphorylated peptide, bacterial display (enrichment ratio); higher = better substrate or ligand; peptides without Tyr show the background
readoutType: SH2 binding enrichment

Below, 5 sequences whose answers are already recorded.
biosequence="PANMVYSTVEI [SLAMF7_Y304_T302M]" readouttype="SH2 binding enrichment" observedvalue=0.833
biosequence="PADRAYSWFQH [NDST1_Y711_YF]" readouttype="SH2 binding enrichment" observedvalue=0.976
biosequence="QTENKYVSVSG [EIF2AK3_Y565_D566V]" readouttype="SH2 binding enrichment" observedvalue=0.828
biosequence="KIITDYFVDMK [MPP4_Y566_V562I_YF]" readouttype="SH2 binding enrichment" observedvalue=0.526
biosequence="RLFARYFQGDL [PDK3_Y337_YF]" readouttype="SH2 binding enrichment" observedvalue=0.292

[P] LTDRGYSFVTT [ACTA1_Y200_E197D]
[Q] FADIAYNFHHG [PAH_Y166_R169H_YF]
[R] VNLVLHLSIAK [FBXO15_Y496_Y496H]
Give the ascending ranking of the items by reported SH2 binding enrichment. Respond with the label ranking, as requested.
R, Q, P
(R: 0.351, Q: 0.566, P: 10)

[I] CQAHGYSCQLI [STK11_Y156_F157S]
[II] LPPREYVVVPS [CAPN1_Y494_G492R]
[III] TLNHQYDYTFD [CSNK1A1_Y292]
[IV] EGNERYEGYCV [GRIA3_Y451]
Give the ascending ranking of the items by reported SH2 binding enrichment. Respond with the label ranking, as requested.
I, II, IV, III
(I: 0.768, II: 1.17, IV: 2.3, III: 9.88)

---

targetOfAssay: Jak2 (UniProt O60674)
Sequence (O60674 whole entry, looked up): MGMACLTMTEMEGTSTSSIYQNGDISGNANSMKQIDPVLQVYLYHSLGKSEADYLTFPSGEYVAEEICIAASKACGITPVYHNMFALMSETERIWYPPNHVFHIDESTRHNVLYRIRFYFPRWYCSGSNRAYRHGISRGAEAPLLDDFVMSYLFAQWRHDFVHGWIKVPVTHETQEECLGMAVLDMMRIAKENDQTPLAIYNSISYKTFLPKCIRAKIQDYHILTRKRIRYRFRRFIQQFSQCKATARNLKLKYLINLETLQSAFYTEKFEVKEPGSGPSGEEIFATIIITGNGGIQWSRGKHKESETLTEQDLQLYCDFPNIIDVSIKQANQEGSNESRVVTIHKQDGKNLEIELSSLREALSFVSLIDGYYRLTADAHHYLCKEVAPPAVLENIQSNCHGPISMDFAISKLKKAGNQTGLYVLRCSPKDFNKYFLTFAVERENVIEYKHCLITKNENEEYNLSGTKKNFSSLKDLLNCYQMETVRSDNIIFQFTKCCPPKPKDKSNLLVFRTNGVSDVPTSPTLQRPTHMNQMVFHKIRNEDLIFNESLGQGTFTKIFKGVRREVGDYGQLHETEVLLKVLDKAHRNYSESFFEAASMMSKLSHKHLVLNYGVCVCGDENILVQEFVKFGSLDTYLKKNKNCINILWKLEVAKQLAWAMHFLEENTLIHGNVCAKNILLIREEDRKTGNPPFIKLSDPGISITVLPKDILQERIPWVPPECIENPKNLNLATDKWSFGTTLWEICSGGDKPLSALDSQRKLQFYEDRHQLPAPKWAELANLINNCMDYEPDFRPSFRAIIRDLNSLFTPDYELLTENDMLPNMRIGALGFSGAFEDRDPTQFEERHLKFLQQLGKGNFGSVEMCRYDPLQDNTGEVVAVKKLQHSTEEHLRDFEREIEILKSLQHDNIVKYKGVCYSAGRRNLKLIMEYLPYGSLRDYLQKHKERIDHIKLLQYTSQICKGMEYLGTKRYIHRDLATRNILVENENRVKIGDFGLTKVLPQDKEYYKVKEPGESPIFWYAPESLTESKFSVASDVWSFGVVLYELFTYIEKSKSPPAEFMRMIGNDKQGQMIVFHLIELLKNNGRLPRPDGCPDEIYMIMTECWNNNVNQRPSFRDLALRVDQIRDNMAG
testDescription: phosphorylation enrichment, bacterial display (enrichment ratio); higher = better substrate or ligand; peptides without Tyr show the background
Listed sequences paired with reported phosphorylation enrichment
When you answer, write just the number.

Below, 2 sequences whose answers are already recorded.
biosequence="YEEDSYVERSQ [RET_Y905_K907E]" readouttype="phosphorylation enrichment" observedvalue=1.06
biosequence="YPQARYHWLVL [APTX_Y214_K211Q]" readouttype="phosphorylation enrichment" observedvalue=0.98

Dear colleague, please send me the reported phosphorylation enrichment for MGSYNYLGFAR [SPTLC2_Y178] when you can.
2.89

Dear colleague, please send me the reported phosphorylation enrichment for DTYDPYLDVAL [USP36_Y268] when you can.
1.1

Dear colleague, please send me the reported phosphorylation enrichment for HNLYSYPTKHE [MYO3A_Y1396] when you can.
0.561

Dear colleague, please send me the reported phosphorylation enrichment for SISYDYCRVPM [BST2_Y8_T4I] when you can.
3.05

Dear colleague, please send me the reported phosphorylation enrichment for QRALLYEDTLY [UNC13D_Y56_A59T] when you can.
0.942

Dear colleague, please send me the reported phosphorylation enrichment for LSKDLYLISQM [LARP4_Y141] when you can.
1.28

Dear colleague, please send me the reported phosphorylation enrichment for NRLTDYFELLL [BBS10_Y536_P539L_YF] when you can.
1.35

Dear colleague, please send me the reported phosphorylation enrichment for LNLDTYQKRLR [PLA2G2D_Y126_R121L] when you can.
0.389

---

targetOfAssay: c-Src SH2;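 further: peptide library displayed on the E. coli surface as eCPX fusions, selected cells deep-sequenced, score is each peptide's frequency after selection divided by its frequency in the input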
testDescription: SH2 binding enrichment of the phosphorylated peptide, bacterial display (enrichment ratio); higher = better substrate or ligand; peptides without Tyr show the background
readoutType: SH2 binding enrichment

Below, 6 sequences whose answers are already recorded.
biosequence="TTPGPYRSIYF [MPG_Y71]" observedvalue=2.11
biosequence="TDEFEYDELIV [TGM1_Y136_YF]" observedvalue=0.563
biosequence="LWPIWYSCHRP [MRGPRX1_Y130_R131S]" observedvalue=0.535
biosequence="ETKGDYEKILV [ANXA1_Y335]" observedvalue=1.08
biosequence="EVKRLYGSVCD [TC2N_Y154]" observedvalue=0.56
biosequence="PLFRVYGLESL [INSR_Y94_L89P]" observedvalue=0.345

[I] ALERPYTSKHS [NANS_Y71]
[II] CPPKVYELMRA [ABL2_Y515]
Field: lower recorded SH2 binding enrichment (choose I or II ) In your reply, give the label of the chosen option.
I
(I: 0.6, II: 1.53)
